Target: MBP-HTT(1-89)Q46-His(6×) (“Exon1-Q46”) protein aggregates (Homo sapiens, UniProt P42858, INS38QQQQQQQQQQQQQQQQQQQQQQQQQ)
Construct: MBP-HTT(1-89)Q46-His(6×); His(6×) (C)
Sequence (P42858 with tags, fused parts or gaps with the stated changes limits assumed): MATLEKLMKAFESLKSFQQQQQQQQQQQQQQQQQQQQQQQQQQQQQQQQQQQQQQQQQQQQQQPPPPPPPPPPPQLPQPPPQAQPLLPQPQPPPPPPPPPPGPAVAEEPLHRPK
Assay: Exon1-Q46 Radioligand Binding Assay
Details: displacement of 0.3 nM ligand [3H3-methyl]-5-((5-methoxypyridin-2-yl)methoxy)-2-(pyrazin-2-yl)benzo[d]oxazole from 1 μM aggregated Exon1-Q46 protein; 60 minutes at 37° C.; read-out: Classified Potency
MEASURE: IC50

query: Which IC50 is reported for this molecule? COc1cc(-c2cc(C(=O)NCc3ncccc3OC)ncn2)ccc1F [Example 15]
result: < 100 nM

query: Same question for COc1cc(F)cc(-c2cc(C(=O)Nc3ccc(=O)n(C)n3)ncn2)c1 [Example 21] please.
result: < 100 nM

query: Same question for COc1ccc(-c2cc(C(=O)Nc3nccn(C)c3=O)ncn2)cc1Cl [Example 18] please.
result: < 100 nM
